Each entry below carries its recorded IC50.
subject of test: human MRGPR X4 (Homo sapiens, UniProt Q96LA9)
Construct: expressed in transfected cells
Sequence (Q96LA9 whole entry): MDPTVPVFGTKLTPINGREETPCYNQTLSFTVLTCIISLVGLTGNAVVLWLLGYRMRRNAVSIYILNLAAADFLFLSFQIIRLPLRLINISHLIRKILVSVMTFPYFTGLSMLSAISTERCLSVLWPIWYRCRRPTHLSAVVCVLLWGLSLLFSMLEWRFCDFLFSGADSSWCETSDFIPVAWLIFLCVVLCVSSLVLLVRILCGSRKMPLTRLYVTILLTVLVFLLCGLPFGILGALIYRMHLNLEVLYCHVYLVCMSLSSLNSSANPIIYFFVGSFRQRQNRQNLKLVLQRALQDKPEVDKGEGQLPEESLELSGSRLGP
protocol: MRGPR X4 antagonist activity, IP-One Gq HTRF assay in stably transfected HEK cells
Type: cell-based
study conditions: versus 20 μM deoxycholic acid agonist; HEK cells expressing human MRGPR X4; read-out: MRGPRX4 Antagonist Activity

So what's the measured IC50 for this one? CC(C)c1ccccc1S(=O)(=O)NC(=O)c1nn(Cc2ccc(Cl)cc2)c2ccccc12 [Compound 302] > 2500 nM

Further cases:
So what's the measured IC50 for this one? CNCc1cn(CCNC(=O)c2nn(Cc3ccc(Cl)cc3)c3ccccc23)nn1 [Compound 142] > 2500 nM

Follow-up entry: O=C(NCCn1cc(C2CCNCC2)nn1)c1nn(Cc2ccc(Cl)cc2)c2ccccc12 [Compound 146] > 2500 nM

Follow-up entry: Cc1cccc(S(=O)(=O)NC(=O)c2nn(Cc3ccc(F)cc3)c3ccccc23)c1 [Compound 292] 1000 to 2500 nM

Follow-up entry: Cc1ccccc1CS(=O)(=O)NC(=O)c1nn(Cc2ccc(Cl)cc2)c2ccccc12 [Compound 288] 1000 to 2500 nM

Follow-up entry: Cc1ccc(Cn2nc(C(=O)NCCc3nnc(C4CCOCC4)[nH]3)c3ccccc32)cc1 [Compound 109] 1000 to 2500 nM
